test system: DAF-12 nuclear receptor (Heterodera glycines), GAL4-LBD fusion; experiment: H. glycines DAF-12 receptor agonists, confirmation, cell-based, luminescence, HEK293, GAL4-LBD fusion (AID 743050); details: HEK293 GAL4-hgDAF12 luciferase reporter, agonist mode; at 6.8 µM; stronger effect = higher value; percent of butyrate response;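 also: 0% = DMSO low control and 100% = 2 mM sodium butyrate high control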
Some of the results follow.
Task for the reader: assign each of the following compounds its reported activation.
Lab book: enter the figure in %, no units written.

Quick one: activation for `Cc1cccc(NC(=O)/C=C/c2ccc3c(c2)OCO3)n1` ?
18.1

Can you share its activation? I mean this compound: `Cc1ccc(NC(=O)c2cc3ccccc3o2)cc1`
22

Using the record for `O=C(Nn1c(SCc2ccc([N+](=O)[O-])cc2)nc2ccccc2c1=O)c1ccc(F)cc1` , report its activation.
11

I have this compound here, `Cc1ccc(NC(=O)c2sccc2C)cc1[N+](=O)[O-]` , and I need its recorded activation.
11

Returns the measured activation for the input compound. Input: `NC(=O)Cc1ccc2sc(-c3ccccc3)nc2c1`
17.4

Which activation reading was recorded for the compound `Cc1ccc(SCCSc2ncccn2)cc1` ?
14.6

----------
test system: transactivating tegument protein VP16 (Human herpesvirus 1), Gal4-VP16 luciferase reporter; experiment: VP16 transactivation inhibitors, counter-screen for SRC3 inhibitor project, cell-based, luminescence, high throughput (AID 588794); details: mammalian cells, VP16-driven luciferase reporter luminescence; at 3.6 µM
Activity calls are given as the source filed them. Rule as the data show it: active = inhibition above about 30%; inactive = the rest.
Write down the outcome that applies. Available outcomes: yes (active), no (inactive)

Status in this test for `COc1ccc(OC)c(N/C=C/C(=O)c2ccccc2)c1` ?
no

Would you mind telling me which call this test gave `O=C(OCc1ccccc1)c1ccc(NCc2cc(O)ccc2O)cc1` ?
no

// param item: `Cc1c(Cl)cccc1NC(=O)CCC(=O)N/N=C/c1ccc[nH]1` ; yields the recorded call
no

Hey, what did the test say about `COc1cc(/C=C2\SC(N)=NC2=O)cc(OC)c1` ?
no

Assay result, entry `CCN1/C(=C\c2ccc3ccccc3[n+]2CC)Sc2cc(C)ccc21` — outcome?
yes

Would you mind telling me which call this test gave `CN(Cc1ccccc1)c1ncnc(N)c1[N+](=O)[O-]` ?
yes

----------
target: Protein phosphatase methylesterase 1 (Homo sapiens); experiment: PME-1 inhibitor activity retest, confirmation, biochemical, fluorescence polarization, FP-Rh probe, triplicate (AID 2171); conditions: recombinant PME-1, FP-Rh probe fluorescence polarization; at 5.9 µM;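 also: 0% = enzyme with DMSO and 100% = wells lacking PME-1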
The source made the active and inactive calls.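 The calls were made as follows: active = inhibition above the hit cutoff set in the earlier primary screen (cut at about 27% in these data); inactive = the rest.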
Bench note: report the call from label 1 (active), label 0 (inactive)

Hello, I am checking results. What call was entered for `Cc1ccc(Nc2c([N+](=O)[O-])ccc3c2=NC2(CCCCC2)N=3)cc1` ?
label 1

Could you please tell me the result logged for `CCOc1ccc(N=C/C=C/c2ccccc2)c(O)c1` in this assay?
label 0

Dear all, I need the recorded test outcome for `O=C(COC(=O)c1ccccc1Br)Nc1cc(S(=O)(=O)N2CCOCC2)ccc1N1CCCC1` , thank you.
label 1

Which outcome was entered for the molecule `COc1ccc2nc(-n3c(O)c(C4=c5ccccc5=NC4=O)[nH]c3=S)sc2c1` in this test?
label 1

Recorded test call requested for `COc1ccccc1/C=C/C=N/n1c(-c2cc(-c3ccccc3)n[nH]2)n[nH]c1=S`
label 0

What did this assay record as the result for `O=C(NCCC1=CCCCC1)C1CCN(S(=O)(=O)c2cccs2)CC1` ?
label 0

Called result for `N#CCC(=O)Nc1ccc(C(=O)OCC(=O)Nc2ccccc2Sc2ccccc2)cc1`
label 0

Tell me the recorded outcome of this test for `COc1cc(/C=N/Nc2nc3ccccc3s2)ccc1O` .
label 1

Recorded test outcome, item `O=C1Nc2ccccc2/C1=N\N=C\C1=C(N2CCOCC2)C(=C\c2ccccc2)/CC1`
label 0

How did this test come out for `Cn1nc(-c2ccc(Cl)cc2)nc2c(=O)n(C)c(=O)nc1-2` ?
label 1

How was `CCCN(CCC)CCCNC(=O)c1cn(CC)c2ccc(S(=O)(=O)N(C)C3CCCCC3)cc2c1=O` classified in this test?
label 1

// param item: `CC1(C)CC(=O)C2=C(C1)N(CCN1CCOCC1)C1=C(C(=O)CC(C)(C)C1)C2c1cccc(F)c1` ; yields the recorded call
label 0

Write down the call the test reported for this molecule. Item: CCOc1ccc(/C=C2\SC(=S)N(C(C(=O)O)c3ccccc3)C2=O)cc1OC (stereo unspecified)
label 1

Please share the test call associated with `O=C(O)c1ccc(N=Nc2c(O)[nH]c3cc(Cl)ccc23)cc1` .
label 1

Dear all, I need the recorded test outcome for `Nc1cc(Cl)nc(N/N=C/c2c(O)ccc3ccccc23)n1` , thank you.
label 0

Write down the call the test reported for this molecule. Item: `CCc1cccc2c(C(=O)COC(=O)c3ccc([N+](=O)[O-])s3)c[nH]c12`
label 0

Any idea what this test logged for `CCC(=O)Oc1ccc(C/C(=N\O)c2ccc(O)cc2O)o1` ?
label 1

Outcome logged for `Cc1cc(C(=O)N/N=C/c2cccc([N+](=O)[O-])c2)c(C)n1-c1ccccc1` in this assay:
label 0

GET /call?item= COc1cc2c(cc1OC)C(c1cc(Br)ccc1F)N(C(=O)CCl)CC2 (stereo unspecified) returns the recorded outcome of this test.
label 1

Test call for this molecule, please: `Cc1sc2ncnc(OCC(=O)N3CCN(S(=O)(=O)c4ccc(Cl)cc4)CC3)c2c1C`
label 0

What did the test return for `CCc1nnc(NC(=O)c2sc3nc4cc(C)ccc4cc3c2N)s1` ?
label 1

----------
molecular target: Nuclear receptor coactivator 2 (Homo sapiens) (UniProt Q15596); assay: SRC2 coactivator transcriptional activity inhibitors, confirmation, cell-based, luminescence, HEK293, triplicate (AID 652008); settings: HEK293 GAL4-SRC2 luciferase reporter, at 8.9 µM, stronger effect = higher value;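 also: 0% = DMSO-treated cells and 100% = Gossypol at 36 µM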
Sequence (Q15596 whole entry, looked up, the tested form may be a part): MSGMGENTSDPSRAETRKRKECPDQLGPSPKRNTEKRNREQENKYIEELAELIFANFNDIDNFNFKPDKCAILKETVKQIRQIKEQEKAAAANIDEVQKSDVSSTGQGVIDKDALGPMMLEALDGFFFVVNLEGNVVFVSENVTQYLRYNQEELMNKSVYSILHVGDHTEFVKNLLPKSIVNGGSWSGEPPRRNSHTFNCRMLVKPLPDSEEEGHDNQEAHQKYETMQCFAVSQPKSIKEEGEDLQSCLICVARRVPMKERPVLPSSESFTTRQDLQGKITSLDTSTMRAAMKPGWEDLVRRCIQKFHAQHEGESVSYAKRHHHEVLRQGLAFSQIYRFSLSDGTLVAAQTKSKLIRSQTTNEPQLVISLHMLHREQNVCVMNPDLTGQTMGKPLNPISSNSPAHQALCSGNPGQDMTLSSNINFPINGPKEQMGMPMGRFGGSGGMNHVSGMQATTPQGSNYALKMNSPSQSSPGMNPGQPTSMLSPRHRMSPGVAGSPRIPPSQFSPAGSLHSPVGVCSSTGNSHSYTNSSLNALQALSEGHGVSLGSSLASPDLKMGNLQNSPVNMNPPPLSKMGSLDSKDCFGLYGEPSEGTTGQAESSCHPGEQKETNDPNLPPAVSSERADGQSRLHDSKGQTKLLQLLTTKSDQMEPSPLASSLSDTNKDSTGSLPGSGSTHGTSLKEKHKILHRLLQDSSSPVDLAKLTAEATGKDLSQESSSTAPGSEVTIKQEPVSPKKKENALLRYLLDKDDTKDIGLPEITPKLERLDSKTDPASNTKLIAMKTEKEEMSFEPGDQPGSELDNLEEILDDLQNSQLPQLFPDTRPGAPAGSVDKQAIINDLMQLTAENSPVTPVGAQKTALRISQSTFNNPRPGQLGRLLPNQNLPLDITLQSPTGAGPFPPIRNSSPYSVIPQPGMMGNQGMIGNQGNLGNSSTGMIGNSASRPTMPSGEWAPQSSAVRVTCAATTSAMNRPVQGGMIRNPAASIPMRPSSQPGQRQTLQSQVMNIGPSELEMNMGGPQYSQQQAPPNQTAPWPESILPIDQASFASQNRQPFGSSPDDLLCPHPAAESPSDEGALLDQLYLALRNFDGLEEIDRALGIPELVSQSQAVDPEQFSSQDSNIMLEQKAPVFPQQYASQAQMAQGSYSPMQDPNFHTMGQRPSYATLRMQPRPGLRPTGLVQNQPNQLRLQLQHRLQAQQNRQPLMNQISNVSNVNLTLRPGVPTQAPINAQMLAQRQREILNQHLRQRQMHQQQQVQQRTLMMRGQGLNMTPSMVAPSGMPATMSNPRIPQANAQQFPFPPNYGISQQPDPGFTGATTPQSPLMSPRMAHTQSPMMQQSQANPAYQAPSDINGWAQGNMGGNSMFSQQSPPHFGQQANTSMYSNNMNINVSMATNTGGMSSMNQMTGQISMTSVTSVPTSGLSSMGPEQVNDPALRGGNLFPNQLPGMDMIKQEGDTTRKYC
MEASURED_PROPERTY: inhibition (%)
Quick reminder: number only, in %, skip the unit.

Recall the recorded inhibition for `S=C(NCCCc1cnc[nH]1)NCCCN(Cc1ccc(Cl)cc1)c1ccc(Br)cn1` with Nuclear receptor coactivator 2 (Homo sapiens) (UniProt Q15596) and state it.
51.4

What reported inhibition corresponds to `O=S(=O)(Nc1ccc2c(c1)OCCO2)c1cccc2nsnc12` on Nuclear receptor coactivator 2 (Homo sapiens) (UniProt Q15596)?
44

Test system Nuclear receptor coactivator 2 (Homo sapiens) (UniProt Q15596); read-out inhibition; what value for CCOc1ccc(CN2CCNC(=O)C2CC(=O)NCCc2cnccn2)cc1 (configuration not stated) ?
-23.9

Requested read-out inhibition, target or system Nuclear receptor coactivator 2 (Homo sapiens) (UniProt Q15596), entry Cc1c(C(C)NC(=O)c2cc(COc3cccc4cnccc34)on2)cnn1C (configuration not stated)
46.9

Hi! What's the reported inhibition for `Clc1ccc(-c2csc(=Nc3cccnc3)n2CCCn2ccnc2)cc1Cl` on Nuclear receptor coactivator 2 (Homo sapiens) (UniProt Q15596)?
63.7

Query for Nuclear receptor coactivator 2 (Homo sapiens) (UniProt Q15596): what inhibition does the record show for `COc1ccc(CN2CCN(Cc3ccc(C(F)(F)F)cc3)CC2)cc1` ?
22.6

Please provide the recorded inhibition for `O=C(CCCN1C(=O)/C(=C/c2ccc3c(c2)OCO3)SC1=S)Nc1ccc(C(=O)O)cc1` , tested on Nuclear receptor coactivator 2 (Homo sapiens) (UniProt Q15596).
36.2

Please tell me: inhibition of `CCc1nc(N)nc(N)c1-c1ccc(Cl)c([N+](=O)[O-])c1` , system Nuclear receptor coactivator 2 (Homo sapiens) (UniProt Q15596)?
24.5

Item: `c1ccc2c(-c3ccc4nncn4c3)cncc2c1` Test system: Nuclear receptor coactivator 2 (Homo sapiens) (UniProt Q15596) Read-out: inhibition Value: ?
46.3

Nuclear receptor coactivator 2 (Homo sapiens) (UniProt Q15596) / inhibition / `NCC(=O)Nc1ccc(Cl)cc1C(=O)c1ccc[nH]1` : value?
43.5

Reported inhibition for Nuclear receptor coactivator 2 (Homo sapiens) (UniProt Q15596), given `CCOc1ccc(NC(=O)c2ccccn2)cc1` ?
25.7

# value lookup — system Nuclear receptor coactivator 2 (Homo sapiens) (UniProt Q15596), readout inhibition, item `COC1=CC(=O)c2c(ccc3ncnc(N)c23)C1=O`
69.5

# returns recorded inhibition (system: Nuclear receptor coactivator 2 (Homo sapiens) (UniProt Q15596)) for `Cc1ccc2cc(CN(Cc3ccco3)S(=O)(=O)c3c(C)ccc4nsnc34)c(=O)[nH]c2c1`
14.2

Could you share what inhibition was measured for `CCOc1ccc(-c2cc(CCCC(=O)Nc3cc(OC)ccc3OC)no2)cc1` , tested on Nuclear receptor coactivator 2 (Homo sapiens) (UniProt Q15596)?
79.5

I'm curious: which inhibition was measured for `CCn1c(Oc2ccc(F)cc2)nc2c1c(=O)n(C)c(=O)n2C` tested on Nuclear receptor coactivator 2 (Homo sapiens) (UniProt Q15596)?
30.9

API: value(readout= inhibition, system= Nuclear receptor coactivator 2 (Homo sapiens) (UniProt Q15596), query= `Cc1cc(C(=O)CN2C(=O)c3ccccc3S2(=O)=O)c(C)n1-c1ccccc1` )
55.4

Lab request: please report inhibition under test system Nuclear receptor coactivator 2 (Homo sapiens) (UniProt Q15596) for `Oc1ccc(N=Nc2ccc3c(c2)OCCO3)c(O)c1`
35.1

# query: inhibition | item `O=C(CCCc1ccccc1)c1ccc2c(c1)OCCO2` | system: Nuclear receptor coactivator 2 (Homo sapiens) (UniProt Q15596)
73.9

Please tell me: inhibition of `COc1cccc(CNC(=O)C2CCN(S(=O)(=O)c3ccc(F)cc3)CC2)c1` , system Nuclear receptor coactivator 2 (Homo sapiens) (UniProt Q15596)?
-10.1

Which measured inhibition belongs to `CCCC(CCC)C(=O)Nc1ccc2c(c1)N(C(=O)CN1CCN(C)CC1)c1ccccc1CC2` , tested on Nuclear receptor coactivator 2 (Homo sapiens) (UniProt Q15596)?
-4.28

Report inhibition for `O=C(CSCCO)Nc1ccc(C23CC4CC(CC(C4)C2)C3)cc1` tested on Nuclear receptor coactivator 2 (Homo sapiens) (UniProt Q15596).
41.9

Please provide the recorded inhibition for O=C(NCCc1ccccc1)C(c1cccs1)N(C(=O)CCl)c1ccc(Cl)cc1 (configuration not stated) , tested on Nuclear receptor coactivator 2 (Homo sapiens) (UniProt Q15596).
52.8
